Tested on: XIP peptide (Xip251-270) binding
Test: small-molecule binders of XIP peptide, primary screen, biochemical, small-molecule microarray, fluorescence 635/667 nm, 0.1 µg/mL protein (AID 1182)
Conditions: fluorescent protein binding, 635 nm, higher = more signal, called active from +8 up or from −8 down
The source made the active and inactive calls.
Quick reference for composite z-score among some compounds
test readout: composite z-score

>>> test_value("CN(C)CCCNC(=O)[C@@H]1c2ccccc2C(=O)N(Cc2ccc(OC(F)(F)F)cc2)[C@H]1c1ccc(CO)cc1")
"0.323 (inactive)"
>>> test_value("C=CCOC(=O)[C@H]1[C@@H]2C(=O)O[C@@H](c3ccccc3)[C@@H](c3ccccc3)N2[C@@H](c2ccc(OCCOC(=O)[C@H]3C[C@H]4C(=O)N[C@@H](Cc5ccccc5)C(=O)N4[C@H]3c3cccc(OCCO)c3)cc2)[C@]12C(=O)Nc1ccc(I)cc12")
"0.893 (inactive)"
>>> test_value("Cc1ccc(S[C@]2(C(=O)O)CC(=O)N(Cc3ccccc3Cl)[C@@H]2c2ccc(CO)cc2)cc1")
"0.084 (inactive)"
>>> test_value("CCCc1cccc(=O)o1")
"0.684 (inactive)"
>>> test_value("CC1CC/C=C\\[C@H]2OC34C=CCN(c5ccc6ccccc6c5)C(=O)[C@H]3N(C(CO)C(C)C)C(=O)[C@@H]4C2C(=O)O1 (some centres undefined)")
"0.17 (inactive)"
>>> test_value("C=C(CCCC)C(=O)CC[C@@H](OC(=O)c1ccccc1-c1ccccc1C(=O)O)c1cccc(OCCO)c1")
"1.03 (inactive)"
>>> test_value("NC(=O)NCC#Cc1ccc2c(c1)[C@]1(C(=O)N2)[C@H](c2ccc(O)cc2)N2[C@H](c3ccccc3)[C@H](c3ccccc3)OC(=O)[C@H]2[C@@H]1C(=O)Nc1nc2ccccc2s1")
"0.541 (inactive)"
>>> test_value("O=C(N1CCCCC1)[C@@]1(Cc2ccccc2)COC(c2ccc(OCCCO)cc2)=N1")
"1.07 (inactive)"
>>> test_value("CN(C)C(=O)[C@@]1(Cc2ccccc2N=[N+]=[N-])COC(c2ccc(OCCCO)cc2)=N1")
"0.472 (inactive)"
>>> test_value("COCCOC(=O)N1C(=O)[C@@]2(c3cc(C#CCNC(N)=O)ccc31)[C@H](C(=O)N1CCCCCCC1)[C@H]1C(=O)O[C@H](c3ccccc3)[C@H](c3ccccc3)N1[C@@H]2c1ccc(O)cc1")
"0.328 (inactive)"
>>> test_value("COc1ccc(C(O)C2C=CC3C(=O)N(c4ccccc4)C(=O)C3N2Nc2ccccc2)cc1OCc1ccccc1 (centres undefined)")
"0.0123 (inactive)"
>>> test_value("O=C1C[C@@](C(=O)NCC(F)(F)F)(c2ccc([N+](=O)[O-])cc2)[C@@H](c2ccc(CO)cc2)N1C1CCCCC1")
"0.925 (inactive)"
>>> test_value("CC(C)(C)OC(=O)CC[C@@]1(C(=O)O)N=C(c2ccc(OCCCO)cc2)O[C@@H]1c1ccccc1CN=[N+]=[N-]")
"-0.168 (inactive)"
>>> test_value("CC(=O)N1Cc2ccccc2C[C@]2(N=C(c3ccc(OCCCO)cc3)O[C@@H]2c2ccccc2)C1=O")
"1.84 (inactive)"
>>> test_value("C=CCOC(=O)[C@@H]1[C@H]2C(=O)O[C@H](c3ccccc3)[C@H](c3ccccc3)N2[C@H](c2ccc(OCCOC(=O)[C@H]3C[C@H]4C(=O)N[C@@H](CCCC[N+](C)(C)C)C(=O)N4[C@H]3c3ccc(O)cc3)cc2)[C@@]12C(=O)Nc1ccc(I)cc12")
"0.708 (inactive)"
>>> test_value("CCOC(=O)C[C@H]1[C@H](OC(=O)Cc2ccc3c(c2)OCO3)[C@@H](NC(=O)C2CCCCC2)c2cc(OCCCO)ccc2N1C(=O)c1ccc2ccccc2n1")
"1.35 (inactive)"
>>> test_value("CN1C(=O)C2C=CC(C(O)C3CCCCC3)N(N3CCCCC3)C2C1=O (centres undefined)")
"0.269 (inactive)"
>>> test_value("O=C1c2ccccc2[C@@]2(Cc3ccccc3N(C3CC3)C2=O)[C@H](c2ccc(CO)cc2)N1C1CCCCC1")
"-0.241 (inactive)"
>>> test_value("C=C(/C(=C/C[C@@H](OC(=O)c1ccncc1)c1ccc(OCCO)cc1)c1cc(C(=O)OC)ccc1OC)C(C)C")
"0.281 (inactive)"
>>> test_value("COc1cc2c(cc1O)C(C)N(Cc1cc3c(cc1Br)OCO3)CC2 (centres undefined)")
"1.5 (inactive)"
>>> test_value("C=CC[C@@]1(C(=O)N2CCCCC2)N=C(c2ccc(OCCCO)cc2)O[C@@H]1c1ccccc1")
"0.0703 (inactive)"
>>> test_value("CCOC(=O)C1=CC[C@@H](c2ccc([N+](=O)[O-])cc2)N(S(=O)(=O)c2ccc(C)cc2)[C@H]1c1ccccc1")
"0.353 (inactive)"
>>> test_value("COC(=O)Cn1c(C(=O)N2CCCC2)cc2c1C[C@H]1CN(C(=O)c3ccccc3)[C@@](Cc3ccc(F)cc3)(C(=O)OC)[C@@H]21")
"0.243 (inactive)"
>>> test_value("C=CCNC(=O)[C@H]1[C@@H]2C(=O)O[C@@H](c3ccccc3)[C@@H](c3ccccc3)N2[C@@H](c2ccccc2OCCO)[C@]12C(=O)N(C(=O)OCCOC)c1ccc(C#CC3=CCCCC3)cc12")
"0.234 (inactive)"
>>> test_value("CC(C)N1CC=CC23O[C@@H]4C=CCOC(=O)[C@@H]4[C@H]2C(=O)N(C(C)CO)[C@@H]3C1=O (some centres undefined)")
"-0.409 (inactive)"
>>> test_value("C=C(/C(=C/C[C@@H](OC(=O)c1ccncc1)c1ccccc1OCCO)c1cc(C(=O)OC)ccc1OC)C(C)C")
"0.214 (inactive)"
>>> test_value("C=C[C@@H](COC(C)=O)NS(=O)(=O)c1ccc(Br)cc1")
"0.0525 (inactive)"
>>> test_value("CCC[C@@H]1C[C@@]1(CCC)[C@@H](NP(=O)(c1ccccc1)c1ccccc1)c1ccc(Cl)cc1")
"0.337 (inactive)"
>>> test_value("COCCCNC(=O)[C@@]1(Sc2ccc(C)cc2)CC(=O)N(C2Cc3ccccc3C2)[C@@H]1c1ccc(CO)cc1I")
"0.0203 (inactive)"
